Below are IC50 values for Vascular endothelial growth factor A, long form (Homo sapiens) collected from several publications.
# note: boundary value 400 nM maps to condition not met; IC50 below it maps to condition met

>>> assigned_category("CC(C)(CC(=O)N1CCC[C@H]1C(=O)O)CN1C(=O)c2cc3oc(-c4ccc(Cl)cc4)cc3n2C1=S")
"condition not met"
>>> assigned_category("COC(=O)CN(C)C(=O)CC(C)(C)CN1C(=O)c2cc3oc(-c4ccc(Cl)cc4)cc3n2C1=S")
"condition not met"
>>> assigned_category("CCOC(=O)CCCN1C(=O)c2cc3sc(-c4ccc([N+](=O)[O-])cc4)cc3n2C1=S")
"condition met"
>>> assigned_category("CCN(CC)C(=O)CC(C)(C)CN1C(=O)c2cc3oc(-c4ccc(Cl)cc4)cc3n2C1=S")
"condition not met"
>>> assigned_category("CN(CC(=O)O)C(=O)CC(C)(C)CN1C(=O)c2cc3oc(-c4ccc(Cl)cc4)cc3n2C1=S")
"condition not met"
>>> assigned_category("COCCCN1C(=O)C(=Cc2ccc(-c3ccc(Cl)cc3)o2)SC1=S")
"condition met"
>>> assigned_category("CCN1CCc2c(sc(NC(=O)CCSc3ccccc3)c2-c2nc3ccccc3s2)C1")
"condition not met"
>>> assigned_category("CC(C)(C)C(=O)Nc1sc2c(c1-c1nc3ccccc3s1)CCN(Cc1ccccc1)C2")
"condition not met"
>>> assigned_category("CON(C)C(=O)CCCN1C(=O)c2cc3oc(-c4ccc([N+](=O)[O-])cc4)cc3n2C1=S")
"condition met"
>>> assigned_category("CCN1CCc2c(sc(NC(=O)c3ccccc3)c2-c2nc3ccccc3s2)C1")
"condition not met"
>>> assigned_category("CCOC(=O)CCCn1c(=S)sc2c(-c3ccc(-c4ccc([N+](=O)[O-])cc4)o3)snc21")
"condition not met"
>>> assigned_category("O=C(O)CCCN1C(=O)c2cc3oc(-c4ccc([N+](=O)[O-])cc4)cc3n2C1=S")
"condition not met"
>>> assigned_category("COC(=O)c1ccc(C(=O)Nc2sc3c(c2-c2nc4ccccc4s2)CCN(C(C)C)C3)cc1")
"condition met"
>>> assigned_category("CC(C)(CC(=O)N1CCC[C@@H]1C(=O)O)CN1C(=O)c2cc3oc(-c4ccc(Cl)cc4)cc3n2C1=S")
"condition not met"
>>> assigned_category("Cc1c(N2C(=O)c3cc4oc(-c5ccc(Cl)cc5)cc4n3C2=S)c(=O)n(-c2ccccc2)n1C")
"condition not met"
>>> assigned_category("CN1CCc2c(sc(NC(=O)c3cc4ccccc4o3)c2-c2nc3ccccc3s2)C1")
"condition met"
>>> assigned_category("CN1CCc2c(sc(NC(=O)c3cccs3)c2-c2nc3ccccc3s2)C1")
"condition not met"
>>> assigned_category("Cc1cc(N(C)C)cc2[s+]c3cc(N(C)C)cc(C)c3nc12")
"condition not met"
>>> assigned_category("CC(C)(CC(=O)N1CCOCC1)CN1C(=O)c2cc3oc(-c4ccc(Cl)cc4)cc3n2C1=S")
"condition not met"
>>> assigned_category("CCOC(=O)CCCN1C(=O)c2cc3oc(-c4ccc(Cl)cc4)cc3n2C1=S")
"condition met"
>>> assigned_category("CC(C)(CC(=O)O)CN1C(=O)c2cc3oc(-c4ccc(Cl)cc4)cc3n2C1=S")
"condition not met"
>>> assigned_category("CCOC(=O)CCCN1C(=O)c2cc3oc(-c4ccc([N+](=O)[O-])cc4)cc3n2C1=S")
"condition met"
>>> assigned_category("CN1CCc2c(sc(NC(=O)c3ccc4ncsc4c3)c2-c2nc3ccccc3s2)C1")
"condition met"
>>> assigned_category("CCOC(=O)CC(C)(C)CN1C(=O)c2cc3oc(-c4ccc([N+](=O)[O-])cc4)cc3n2C1=S")
"condition met"
>>> assigned_category("CCN1CCc2c(sc(NC(=O)c3cccc(N4C(=O)CCC4=O)c3)c2-c2nc3ccccc3s2)C1")
"condition met"
